From: ChEMBL document CHEMBL3763086

- System: Candida tropicalis
- Procedure summary: Antifungal activity against Candida tropicalis 156 after 48 hrs by microbroth dilution method
- Type: functional
- Applied conditions: Candida tropicalis, 156, 48 h
Quantity kind: MIC (µM)
Answers are plain numbers, in µM.

>  <Compound>
O=C(NCc1ccccc1)Oc1ccc(Cl)cc1C(=O)Nc1ccc(Br)cc1

>  <MIC / µM>
125

$$$$

Kindly review the next compound as well.
Find the recorded MIC belonging to C[C@@H]1[C@H](O)[C@@H](C)/C=C/C=C/C=C/C=C/C=C/C=C/C=C/[C@H](O[C@@H]2O[C@H](C)[C@@H](O)[C@H](N)[C@@H]2O)C[C@@H]2O[C@](O)(C[C@@H](O)C[C@@H](O)[C@H](O)CC[C@@H](O)C[C@@H](O)CC(=O)O[C@H]1C)C[C@H](O)[C@H]2C(=O)O [AMPHOTERICIN B] and report it.
1.95

* * *

- Test system: Staphylococcus epidermidis
- Procedure summary: Antibacterial activity against Staphylococcus epidermidis H 6966/08 after 24 hrs by microbroth dilution method
- Format: functional
- Applied conditions: H 6966/08, 24 h
Quantity kind: MIC (µM)
Numbers only, in µM.

// worked examples, MIC included
>  <Smiles str>
O=C(NC12CC3CC(CC(C3)C1)C2)Oc1ccc(Cl)cc1C(=O)Nc1ccc(Cl)cc1

>  <MIC (µM)>
3.9

$$$$
>  <Smiles str>
O=C(Nc1ccccc1)Oc1ccccc1C(=O)Nc1ccccc1

>  <MIC (µM)>
500

$$$$

Batch lookup, MIC per entry.
1. O=C(NCc1ccccc1)Oc1ccccc1C(=O)Nc1ccccc1
2. O=C(NC12CC3CC(CC(C3)C1)C2)Oc1ccc(Cl)cc1C(=O)Nc1ccc(Br)cc1
3. O=C(Nc1ccccc1)Oc1ccc(Cl)cc1C(=O)Nc1ccc(Cl)cc1

500
0.98
31.2

* * *

- Test system: Enterococcus sp.
- Procedure summary: Antibacterial activity against Enterococcus sp. J 14365/08 after 24 hrs by microbroth dilution method
- Format: functional
- Applied conditions: J 14365/08, 24 h
Exercise: for every item that follows, state its recorded MIC.
Give bare numbers, in µM.

// worked examples, MIC included
>  <Smiles str>
O=C(NC12CC3CC(CC(C3)C1)C2)Oc1ccc(Cl)cc1C(=O)Nc1ccc(Cl)cc1

>  <Measurement>
250

$$$$
>  <Smiles str>
O=C(Nc1ccccc1)Oc1ccc(Cl)cc1C(=O)Nc1ccc(Cl)cc1

>  <Measurement>
500

$$$$
>  <Smiles str>
CC1(C)S[C@@H]2[C@H](NC(=O)Cc3ccccc3)C(=O)N2[C@H]1C(=O)O

>  <Measurement>
7.81

$$$$

Kindly review the next compound as well.
Find the recorded MIC belonging to O=C(NC1CCCCC1)Oc1ccc(Cl)cc1C(=O)Nc1ccc(Br)cc1 and report it.
500

* * *

- System: Candida albicans
- Procedure summary: Antifungal activity against Candida albicans ATCC 44859 after 48 hrs by microbroth dilution method
- Format: functional
- Applied conditions: ATCC 44859, 48 h
Exercise: for every item that follows, state its recorded MIC.

// worked examples, MIC included
>  <Smiles str>
O=C(NCc1ccccc1)Oc1ccccc1C(=O)Nc1ccccc1

>  <MIC>
125 µM

$$$$
>  <Smiles str>
O=C(NC1CCCCC1)Oc1ccc(Cl)cc1C(=O)Nc1ccc(F)cc1

>  <MIC>
> 125 µM

$$$$
>  <Smiles str>
O=C(NCCc1ccccc1)Oc1ccc(Cl)cc1C(=O)Nc1ccc(F)cc1

>  <MIC>
> 500 µM

$$$$
>  <Smiles str>
O=C(NCCc1ccccc1)Oc1ccccc1C(=O)Nc1ccccc1

>  <MIC>
> 500 µM

$$$$
>  <Smiles str>
O=C(Nc1ccccc1)Oc1ccc(Cl)cc1C(=O)Nc1ccc(F)cc1

>  <MIC>
> 250 µM

$$$$

Batch lookup, MIC per entry.
1. O=C(Nc1ccccc1)Oc1ccccc1C(=O)Nc1ccccc1
2. O=C(NCCc1ccccc1)Oc1ccc(Cl)cc1C(=O)Nc1ccc(Cl)cc1
3. O=C(NCc1ccccc1)Oc1ccc(Cl)cc1C(=O)Nc1ccc(Br)cc1
4. O=C(NCc1ccccc1)Oc1ccc(Cl)cc1C(=O)Nc1ccc(F)cc1
5. O=C(NCc1ccccc1)Oc1ccc(Cl)cc1C(=O)Nc1ccc(Cl)cc1
6. O=C(NC12CC3CC(CC(C3)C1)C2)Oc1ccc(Cl)cc1C(=O)Nc1ccc(Cl)cc1

["> 500 µM", "> 500 µM", "62.5 µM", "> 250 µM", "> 125 µM", "> 250 µM"]
